Species on record: Rattus norvegicus
protocol-details: DrugMatrix - Regimen: Daily Repeat
Type: toxicity, organism-based, Sprague-Dawley
Parameters: regimen Daily Repeat, gender Male, age 6-8 weeks
reported-conditions: in vivo, po, 0 mg/kg, 72 h, tissue Blood, route oral GAVAGE, dose level Control, time 3 day, vehicle 100 % WATER
Each entry gets False if its MONOCYTE stays under 1%, and True if its MONOCYTE is 1% or above.

{"molecule": "NC12CC3CC(CC(C3)C1)C2", "class-name": "True"}
{"molecule": "CCN(C(C)=O)c1cccc(-c2ccnc3c(C#N)cnn23)c1", "class-name": "True"}
{"molecule": "O=c1[nH]c(=O)n(C2CCCO2)cc1F (stereo not given)", "class-name": "False"}
{"molecule": "CNC1=Nc2ccc(Cl)cc2C(c2ccccc2)=[N+]([O-])C1 [CHLORDIAZEPOXIDE]", "class-name": "True"}
{"molecule": "CN(C)CCC=C1c2ccccc2CCc2ccccc21", "class-name": "True"}
{"molecule": "CCN(CC)CCOC(=O)C1(C2CCCCC2)CCCCC1", "class-name": "True"}
{"molecule": "CN(C)C(=O)Oc1cccc([N+](C)(C)C)c1.[Br-] [NEOSTIGMINE BROMIDE]", "class-name": "False"}
{"molecule": "CCCC(C)C1(CC)C(=O)NC(=O)NC1=O (stereo not given)", "class-name": "False"}
{"molecule": "CCN(CC)CCNC(=O)c1ccc(N)cc1 [PROCAINAMIDE]", "class-name": "True"}
{"molecule": "NC(=O)c1cccnc1 [NIACINAMIDE]", "class-name": "True"}

====

Species: Rattus norvegicus
protocol-details: DrugMatrix - Regimen: Daily Repeat
Type: toxicity, organism-based, Sprague-Dawley
Design: regimen Daily Repeat, gender Male, age 6-8 weeks
reported-conditions: in vivo, po, 0 mg/kg, 120 h, tissue Blood, route oral GAVAGE, dose level Control, time 5 day, […]
readout: MEAN CORPUSCULAR VOLUME (fL)

{"compound": "CCc1ccc(CCOc2ccc(CC3SC(=O)NC3=O)cc2)nc1 (configuration not stated)", "readout": "MEAN CORPUSCULAR VOLUME", "recorded-result": 63.28}
{"compound": "CS(=O)(=O)Nc1ccc([N+](=O)[O-])cc1Oc1ccccc1 [NIMESULIDE]", "readout": "MEAN CORPUSCULAR VOLUME", "recorded-result": 61.33}
{"compound": "c1ccoc1", "readout": "MEAN CORPUSCULAR VOLUME", "recorded-result": 65.75}
{"compound": "CCCCC(=O)N(Cc1ccc(-c2ccccc2-c2nnn[nH]2)cc1)[C@H](C(=O)O)C(C)C", "readout": "MEAN CORPUSCULAR VOLUME", "recorded-result": 61.03}
{"compound": "O=c1c(-c2ccc(O)cc2)coc2cc(O)cc(O)c12", "readout": "MEAN CORPUSCULAR VOLUME", "recorded-result": 63.32}
{"compound": "CC(C)c1c(C(=O)Nc2ccccc2)c(-c2ccccc2)c(-c2ccc(F)cc2)n1CC[C@@H](O)C[C@@H](O)CC(=O)O", "readout": "MEAN CORPUSCULAR VOLUME", "recorded-result": 63.32}
{"compound": "CC(=O)Oc1ccccc1C(=O)O", "readout": "MEAN CORPUSCULAR VOLUME", "recorded-result": 62.87}
